Target: T1, human PRLR (Biacore antigen) (human, UniProt P16471 25-234, limits assumed)
T1 construct: The construct injected over captured antibody is not described (a soluble form is likely); also called huPRLR
T1 sequence: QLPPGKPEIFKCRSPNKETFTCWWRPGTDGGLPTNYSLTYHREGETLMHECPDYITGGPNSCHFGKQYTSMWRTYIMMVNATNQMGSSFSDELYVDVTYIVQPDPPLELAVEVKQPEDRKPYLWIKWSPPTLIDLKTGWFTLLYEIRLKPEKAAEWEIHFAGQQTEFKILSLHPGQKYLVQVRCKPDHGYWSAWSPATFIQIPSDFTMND
Assay: SPR Biacore
This listing pairs binders with measured kon.
Endpoint Label: kon (M⁻¹ s⁻¹)

Binder	Endpoint Label	Observed Result
Ab36 (antibody, human IgG1, kappa, V domains shown, humanized from Ab7; G1; also called Ab4 HC.1 and Ab4 LC.1a) VH: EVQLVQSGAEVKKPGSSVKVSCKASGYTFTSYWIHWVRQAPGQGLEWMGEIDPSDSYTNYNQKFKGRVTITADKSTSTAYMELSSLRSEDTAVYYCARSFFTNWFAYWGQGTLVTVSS VL: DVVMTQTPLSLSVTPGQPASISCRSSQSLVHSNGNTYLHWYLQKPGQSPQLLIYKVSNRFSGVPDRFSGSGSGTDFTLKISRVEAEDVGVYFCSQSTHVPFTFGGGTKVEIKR	kon	157000
Ab21 (antibody, human IgG1, kappa, V domains shown, humanized from Ab6; G1; also called Ab1 HC.1a and Ab1 LC.2a) VH: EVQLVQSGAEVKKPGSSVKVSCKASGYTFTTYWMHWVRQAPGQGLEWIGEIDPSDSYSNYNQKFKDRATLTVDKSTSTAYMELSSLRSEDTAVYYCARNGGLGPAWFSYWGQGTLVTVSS VL: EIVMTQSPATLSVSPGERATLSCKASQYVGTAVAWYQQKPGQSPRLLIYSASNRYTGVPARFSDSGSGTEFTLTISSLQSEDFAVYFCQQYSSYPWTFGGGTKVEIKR	kon	1.06e+06
Ab48 (antibody, human IgG1, kappa, V domains shown, humanized from Ab8; G1; also called Ab3 HC.1a and Ab3 LC.1a) VH: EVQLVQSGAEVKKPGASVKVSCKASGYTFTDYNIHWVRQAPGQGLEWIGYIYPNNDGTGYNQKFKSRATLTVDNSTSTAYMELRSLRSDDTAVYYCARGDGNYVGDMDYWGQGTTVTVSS VL: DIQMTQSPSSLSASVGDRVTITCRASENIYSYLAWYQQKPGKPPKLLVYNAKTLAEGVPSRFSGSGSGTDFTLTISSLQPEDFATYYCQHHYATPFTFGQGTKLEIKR	kon	546000

Every entry's value here was drawn from patent US20170022281A1.
